Attribution: patent US7060721B1

Recorded melting point values for a group of compounds are listed next.

Past entries and their recorded results:
Cc1nc(Cl)c(/C=C/C(=O)NS(=O)(=O)/C=C/c2ccccc2)n1Cc1ccc(/C=C/c2ccccc2)cc1Cl; 230 to 232 °C
Cc1nc(Cl)c(/C=C/C(=O)NS(=O)(=O)/C=C/c2ccccc2)n1Cc1ccc(C(F)(F)F)cc1Cl; 261 to 263 °C
CCCCCOc1ccc(Cn2c(/C=C(\CCCCC)C(=O)NS(=O)(=O)/C=C/c3ccccc3)cnc2C)c(Cl)c1; 168 to 169 °C

Reported melting point for `CCC/C=C/S(=O)(=O)NC(=O)/C=C/c1c(Cl)nc(C)n1Cc1ccc(NC(=O)OC(C)(C)C)cc1Cl` : what is it?
209 to 210 °C

Please look up its melting point: `CCCCS(=O)(=O)NC(=O)/C=C/c1c(Cl)nc(CC)n1Cc1ccc(/C=C/c2ccccc2)cc1Cl`
210 to 213 °C

Using the record for `CCCCCOc1ccc(Cn2c(C)nc(Cl)c2/C=C/C(=O)NS(=O)(=O)/C=C/c2ccccc2)c(Cl)c1` , report its melting point.
196 to 199 °C

Consider the compound shown here: `Cc1nc(Cl)c(/C=C/C(=O)NS(=O)(=O)/C=C/c2ccccc2)n1Cc1ccc(COc2ccccc2)cc1Cl` What is its recorded melting point?
202 to 203 °C

---

readout type: melting point

Below: 2 compounds and their reported melting point.
Cc1nc(Cl)c(/C=C/C(=O)NS(=O)(=O)/C=C/c2ccccc2)n1Cc1ccc(OCC2CCCC2)cc1Cl [Example 21]; 200 to 201 °C
Cc1nc(Cl)c(/C=C/C(=O)NS(=O)(=O)/C=C/c2ccccc2)n1Cc1ccc(-c2cccs2)cc1Cl [Example 4]; 246 to 248 °C

Return reported melting point; argument: CCCCCS(=O)(=O)NC(=O)/C=C/c1c(Cl)nc(C)n1Cc1ccc(NC(=O)OC(C)(C)C)cc1Cl [Example 49]
202 to 204 °C

Can you look up the measured melting point of Cc1nc(Cl)c(/C=C/C(=O)NS(=O)(=O)c2ccccc2)n1Cc1ccc(-c2ccccc2)cc1Cl [Example 10] for me?
245 to 247 °C

Need melting point, item CCC/C=C/S(=O)(=O)NC(=O)/C=C/c1c(Cl)nc(CC)n1Cc1ccc(/C=C/c2ccccc2)cc1Cl [Example 63]
197 to 200 °C

Given CCCCCOc1ccc(Cn2c(C)nc(Cl)c2COC(=O)NS(=O)(=O)c2ccc(C)cc2)c(Cl)c1 [Example 73] , state its recorded melting point.
109 to 111 °C

Report melting point for Cc1nc(Cl)c(/C=C/C(=O)NS(=O)(=O)c2ccc(Cl)s2)n1Cc1ccc(-c2ccccc2)cc1Cl [Example 13] please.
229 to 233 °C

---

readout type: melting point

Before answering, review these 3 worked examples.
Cc1nc(Cl)c(/C=C/C(=O)NS(=O)(=O)/C=C/c2ccccc2)n1Cc1ccc(-c2ccco2)cc1Cl; 227 to 228 °C
CSc1ccc(Cn2c(C)nc(Cl)c2/C=C/C(=O)NS(=O)(=O)/C=C/c2ccccc2)c(Cl)c1; 237 to 238 °C
CCCCCOc1ccc(Cn2c(C)nc(Br)c2/C=C/C(=O)NS(=O)(=O)/C=C/c2ccccc2)c(Cl)c1; 208 to 209 °C

Okay, now this compound:
// melting point lookup, key: `CCCCCOc1ccc(Cn2c(/C=C(\Cc3cccnc3)C(=O)NS(=O)(=O)/C=C/c3ccccc3)cnc2C)c(Cl)c1`
156 to 158 °C

---

melting point: recorded values

Entry `Cc1nc(Cl)c(/C=C/C(=O)NS(=O)(=O)/C=C/c2ccccc2)n1Cc1ncc(C(F)(F)F)cc1Cl` has what melting point?
249 to 252 °C

Item under review: `CCCCCOc1ccc(Cn2c(/C=C(\Cc3ccccc3)C(=O)NS(=O)(=O)/C=C/c3ccccc3)cnc2C)c(Cl)c1` . Reported melting point?
171 to 172 °C

Would you mind telling me what melting point value was observed for `CCC/C=C/S(=O)(=O)NC(=O)/C=C/c1c(Cl)nc(C)n1Cc1ccc(/C=C/c2ccccc2)cc1Cl` ?
226 to 228 °C

Look at this molecule and give its reported melting point. `CCCCCS(=O)(=O)NC(=O)/C=C/c1c(Cl)nc(C)n1Cc1ccc(-c2ccccc2)cc1Cl`
203 to 204 °C

Form field: reported melting point of `Cc1nc(C)n(Cc2ccc(Br)cc2Cl)c1/C=C/C(=O)NS(=O)(=O)/C=C/c1ccccc1`
251 to 253 °C

Recorded melting point of `Cc1nc(Cl)c(/C=C/C(=O)NS(=O)(=O)/C=C/c2ccccc2)n1Cc1ccc([N+](=O)[O-])cc1Cl` , please.
199 to 201 °C

melting point lookup needed for `CCc1nc(Cl)c(/C=C/C(=O)NS(=O)(=O)c2ccc(C)cc2)n1Cc1ccc(/C=C/c2ccccc2)cc1Cl` , thanks.
250 to 252 °C

What melting point value was documented for this molecule, `Cc1nc(Cl)c(/C=C/C(=O)NS(=O)(=O)c2ccc(Br)s2)n1Cc1ccc(-c2ccccc2)cc1Cl` ?
234 to 235 °C

Which value of melting point has been reported for `CCc1nc(Cl)c(/C=C/C(=O)NS(=O)(=O)/C=C/c2ccccc2)n1Cc1ccc(Br)cc1Cl` in the records?
209 to 210 °C

---

Reported melting point values for a set of compounds

These solved cases illustrate the format of a correct answer.
CCCCCS(=O)(=O)NC(=O)/C=C/c1c(Cl)nc(C)n1Cc1ccc(OCC2CCCC2)cc1Cl; 177 to 178 °C
CCC/C=C/S(=O)(=O)NC(=O)/C=C/c1c(Cl)nc(C)n1Cc1ccc(C#Cc2ccccc2)cc1Cl; 207 to 210 °C
Cc1nc(Cl)c(/C=C/C(=O)NS(=O)(=O)/C=C/c2ccccc2)n1Cc1ccc(OCc2ccccc2)cc1Cl; 225 to 227 °C
CCCCCS(=O)(=O)NC(=O)/C=C/c1c(Cl)nc(CC)n1Cc1ccc(/C=C/c2ccccc2)cc1Cl; 197 to 200 °C
Cc1nc(Cl)c(/C=C/C(=O)NS(=O)(=O)/C=C/c2ccccc2)n1Cc1ccc(-c2ccccc2)cc1Cl; 240 to 241 °C
CCCCCOc1ccc(Cn2c(/C=C(\C)C(=O)NS(=O)(=O)/C=C/c3ccccc3)cnc2C)c(Cl)c1; 143 to 145 °C

What does the data say about its melting point? Entry: `Cc1nc(Cl)c(/C=C/C(=O)NS(=O)(=O)/C=C/c2ccccc2)n1Cc1ccc(OCC2CCCCC2)cc1Cl`
210 to 212 °C

I would be grateful if you could share the reported melting point for `Cc1nc(Cl)c(/C=C/C(=O)NS(=O)(=O)/C=C/c2ccccc2)n1Cc1ccc(Br)cc1Cl` .
250 to 251 °C

Can you look up the measured melting point of `CCCCCOc1ccc(Cn2c(C)nc(Cl)c2/C=C(\C)C(=O)NS(=O)(=O)/C=C/c2ccccc2)c(Cl)c1` for me?
156 to 157 °C

Quick one: melting point of `CCCCCS(=O)(=O)NC(=O)/C=C/c1c(Cl)nc(C)n1Cc1ccc(C#Cc2ccccc2)cc1Cl` ?
207 to 209 °C

Which melting point is reported for this compound? `CCCOc1ccc(Cn2c(C)nc(Cl)c2/C=C/C(=O)NS(=O)(=O)/C=C/c2ccccc2)c(Cl)c1`
199 to 201 °C

---

Measured melting point accompanies every entry in the list below.

Consider the compound CCC/C=C/S(=O)(=O)NC(=O)/C=C/c1c(Cl)nc(CC)n1Cc1ccc(C#Cc2ccccc2)cc1Cl [Example 58] and give its measured melting point.
173 to 175 °C

Looking for the measured melting point of CCc1nc(Cl)c(/C=C/C(=O)NS(=O)(=O)/C=C/c2ccccc2)n1Cc1ccc(C#Cc2ccccc2)cc1Cl [Example 54] , can you help?
233 to 234 °C

Given CCCCCS(=O)(=O)NC(=O)/C=C/c1c(Cl)nc(CC)n1Cc1ccc(C#Cc2ccccc2)cc1Cl [Example 57] , state its recorded melting point.
161 to 163 °C

---

# melting point per entry

CCCCCS(=O)(=O)NC(=O)/C=C/c1c(Cl)nc(C)n1Cc1ccc(/C=C/c2ccccc2)cc1Cl [Example 41]; 215 to 216 °C
CCCCCOc1ccc(Cn2c(C)nc(Cl)c2C(=O)NS(=O)(=O)/C=C/c2ccccc2)c(Cl)c1 [Example 72]; 107 to 110 °C
CCCCS(=O)(=O)NC(=O)/C=C/c1c(Cl)nc(CC)n1Cc1ccc(C#Cc2ccccc2)cc1Cl [Example 56]; 165 to 167 °C

# next compound below
Requested read-out: melting point. Entry: Cc1nc(Cl)c(/C=C/C(=O)NS(=O)(=O)/C=C/c2ccccc2)n1Cc1ccc(C#Cc2ccccc2)cc1Cl [Example 6]
220 to 222 °C
